Experimental system: T1, HCoV-229E spike antigens (bead panel) (HCoV-229E, UniProt P15423 16-1115)
T1 sequence: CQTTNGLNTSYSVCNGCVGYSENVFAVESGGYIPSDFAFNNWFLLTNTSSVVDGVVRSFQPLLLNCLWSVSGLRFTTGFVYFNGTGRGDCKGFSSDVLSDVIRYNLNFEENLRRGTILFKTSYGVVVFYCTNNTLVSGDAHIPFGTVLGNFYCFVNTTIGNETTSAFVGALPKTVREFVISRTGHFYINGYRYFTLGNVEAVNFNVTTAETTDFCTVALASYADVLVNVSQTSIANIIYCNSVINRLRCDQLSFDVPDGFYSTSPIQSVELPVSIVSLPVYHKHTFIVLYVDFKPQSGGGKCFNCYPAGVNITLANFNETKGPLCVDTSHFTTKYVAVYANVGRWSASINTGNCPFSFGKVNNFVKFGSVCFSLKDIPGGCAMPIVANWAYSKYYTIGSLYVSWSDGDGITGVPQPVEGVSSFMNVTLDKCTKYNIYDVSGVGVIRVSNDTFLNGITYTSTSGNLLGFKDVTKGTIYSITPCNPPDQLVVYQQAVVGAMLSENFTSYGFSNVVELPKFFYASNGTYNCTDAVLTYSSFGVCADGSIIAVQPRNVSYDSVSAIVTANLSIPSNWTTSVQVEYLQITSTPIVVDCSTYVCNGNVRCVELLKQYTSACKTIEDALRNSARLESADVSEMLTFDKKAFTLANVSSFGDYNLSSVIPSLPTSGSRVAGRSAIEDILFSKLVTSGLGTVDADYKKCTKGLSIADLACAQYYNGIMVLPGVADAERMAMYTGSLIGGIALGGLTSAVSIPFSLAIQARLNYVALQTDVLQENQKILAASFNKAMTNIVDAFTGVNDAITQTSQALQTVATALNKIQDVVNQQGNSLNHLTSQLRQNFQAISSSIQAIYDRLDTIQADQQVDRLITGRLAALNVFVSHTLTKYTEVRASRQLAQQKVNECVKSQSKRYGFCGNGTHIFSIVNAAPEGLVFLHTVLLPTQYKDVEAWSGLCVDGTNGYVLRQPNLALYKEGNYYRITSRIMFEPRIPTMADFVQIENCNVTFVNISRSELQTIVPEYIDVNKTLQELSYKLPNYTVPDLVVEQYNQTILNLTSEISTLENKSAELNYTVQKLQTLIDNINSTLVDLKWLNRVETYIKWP
Procedure text: multiplex bead assay

Binder	binding result
COV_2014 (antibody, V domains shown, human IgG1) VH: QVQLVQSGAEVKKPGASVKVSCKVSGYTLTELSMHWVRQAPGKGLEWMGGFDPEDGETIYAQKFQGRVTMTEDTSTDTAYMELSSLRSEDTAVYYCATGKINYYDSSGYYGTFDYWGQGTLVTVSS VL: AIQLTQSPSSLSASVGDRVTITCRASQGISSYLAWYQQKPGKAPKLLIYAASTLQSGVPSRFSGSGSGTDFTLTISSLQPEDFATYYCQQLNSYHLTFGQGTRLEIK	no binding
COV_2193 (antibody, V domains shown, human IgG1) VH: QVQLVQSGAEVKKPGASVKVSCKVSGYTLTDLSMHWVRQTPGKGLEWMGGFDAEDGETIYAQNFQGRVTMTEDTSIDVAYMELSSLRSEDTAVYYCATGSVGPDYWGQGTLVTVSS VL: SSELTQDPAVSVALGQTVRITCQGDSLRSYYASWFQQKPGQAPVLVIYLKNDRPSGIPDRFSGSSSGNTASLTITGAQAEDEADYYCNSRDSSGNHQVFGGGTKLTVL	no binding
